- assay-overview: Induction of anti-CD3 antibodies-stimulated human T cell activation at 8 uM assessed fold increase in IL-2 secretion measured by ELISA assay; further: reference of the scale not given here
- Type: functional, T cell line
readout-type: fold change (FC)

• C[C@H](Cc1nncn1C)c1cc(NC2CCOC2)nc(N2Cc3c(cccc3C(F)(F)F)C2=O)c1 (single isomer, unassigned) = 0.151
• C[C@H](Sc1nncn1C)c1cccc(NC(=O)c2ccc(Cl)c(C(F)(F)F)n2)c1 = <=0.05
• Cn1cnnc1C(F)(F)[C@](C)(F)c1cccc(N2Cc3c(cc(CN4CC(C#N)C4)cc3C(F)(F)F)C2=O)c1 = 0.101
• C[C@H](Sc1nncn1C)c1cccc(NC(=O)c2cccc(S(C)(=O)=O)n2)c1 = <=0.05
• C[C@H](Cc1nncn1C)c1cccc(NC(=O)c2cc(C(=O)N3C[C@@H](O)[C@H](F)C3)ccn2)c1 = >=0.201
• C[C@H](Cc1nncn1C)c1ccnc(NC(=O)c2cccc(C(F)(F)F)n2)c1 = 0.051
• Cn1cnnc1CC1(c2cccc(N3Cc4c(cc(CN5CCC(F)(F)C5)cc4C(F)(F)F)C3=O)c2)COC1 = >=0.201
• C[C@H](Cc1nncn1C)c1cccc(NC(=O)c2ccnc(C3CC3)n2)c1 = >=0.201
• Cn1cnnc1CC(c1cccc(N2Cc3c(cccc3C(F)(F)F)C2=O)c1)C(F)(F)F (centres undefined) = 0.151
• C[C@H](Cc1nncn1C)c1cccc(N2Cc3c(cc(CN4C[C@@H](O)[C@H](F)C4)cc3C(F)(F)F)C2=O)c1 = >=0.201
• C[C@H](Cc1nncn1C)c1cccc(NC(=O)c2cc3cc(N4CCN(C)C(=O)C4)ccc3cn2)c1.O=C(O)C(F)(F)F = >=0.201
• C[C@H](Cc1nncn1C)c1cccc(N2Cc3c(cc(CN4CC[C@](C)(O)C4)cc3C(F)(F)F)C2=O)c1 = >=0.201
• C[C@H](Sc1nncn1C)c1cccc(NC(=O)c2cc3cc(OCc4ccn[nH]4)ccc3cn2)c1 = 0.101
• C[C@H](Cc1nncn1C)c1cccc(N2Cc3c(cc(CN4CC(C)(O)C4)cc3C(F)(F)F)C2=O)c1 = >=0.201
• C[C@H](Sc1nncn1C)c1cccc(NC(=O)c2cc(C(=O)N3CC(O)C3)ccn2)c1 = <=0.05
• Cc1n[nH]c(C)c1-c1cc2c(c(C(F)(F)F)c1)CN(c1cccc(C3(Cc4nncn4C)COC3)c1)C2=O = >=0.201
• C[C@H](Sc1nncn1C)c1cccc(NC(=O)c2cc3c(Cl)cccc3[nH]2)c1 = >=0.201
• C[C@H](Sc1nncn1C)c1cccc(NC(=O)c2ccnc(C(F)(F)F)n2)c1 = 0.051
• C[C@@H](c1cccc(N2Cc3c(cccc3C(F)(F)F)C2=O)c1)[C@H](F)c1nncn1C (relative stereo) = >=0.201
• Cc1cc(C(=O)Nc2cc([C@H](C)Sc3nncn3C)ccn2)nc(C(F)(F)F)c1 = 0.051
• C[C@H](Cc1nncn1C)c1cccc(NC(=O)c2cc3cccn3cn2)c1 = 0.101
• Cc1cc(C(=O)Nc2cccc(C3(Cc4nncn4C)COC3)c2)nc(C(F)(F)F)n1 = >=0.201
• C[C@H](Cc1nncn1C)c1cccc(N2Cc3c(cc(CN4CC[C@H](F)C4)cc3C(F)(F)F)C2=O)c1 = >=0.201
• Cn1cnnc1[C@H](F)[C@@](C)(F)c1cccc(N2Cc3c(cc(C4CC4)cc3C(F)(F)F)C2=O)c1 (single isomer, unassigned; 482) = 0.051
